Source of measurements: patent US10231954B2

target: EPH-B3 (Homo sapiens, UniProt P54753); test: Kinase profiling EPH-B3; assay type: biochemical; settings: 100 micromolar inhibitor concentration; 100 is no change; read-out: residual kinase activity, EPH-B3
Sequence (P54753 34-998, species assumed): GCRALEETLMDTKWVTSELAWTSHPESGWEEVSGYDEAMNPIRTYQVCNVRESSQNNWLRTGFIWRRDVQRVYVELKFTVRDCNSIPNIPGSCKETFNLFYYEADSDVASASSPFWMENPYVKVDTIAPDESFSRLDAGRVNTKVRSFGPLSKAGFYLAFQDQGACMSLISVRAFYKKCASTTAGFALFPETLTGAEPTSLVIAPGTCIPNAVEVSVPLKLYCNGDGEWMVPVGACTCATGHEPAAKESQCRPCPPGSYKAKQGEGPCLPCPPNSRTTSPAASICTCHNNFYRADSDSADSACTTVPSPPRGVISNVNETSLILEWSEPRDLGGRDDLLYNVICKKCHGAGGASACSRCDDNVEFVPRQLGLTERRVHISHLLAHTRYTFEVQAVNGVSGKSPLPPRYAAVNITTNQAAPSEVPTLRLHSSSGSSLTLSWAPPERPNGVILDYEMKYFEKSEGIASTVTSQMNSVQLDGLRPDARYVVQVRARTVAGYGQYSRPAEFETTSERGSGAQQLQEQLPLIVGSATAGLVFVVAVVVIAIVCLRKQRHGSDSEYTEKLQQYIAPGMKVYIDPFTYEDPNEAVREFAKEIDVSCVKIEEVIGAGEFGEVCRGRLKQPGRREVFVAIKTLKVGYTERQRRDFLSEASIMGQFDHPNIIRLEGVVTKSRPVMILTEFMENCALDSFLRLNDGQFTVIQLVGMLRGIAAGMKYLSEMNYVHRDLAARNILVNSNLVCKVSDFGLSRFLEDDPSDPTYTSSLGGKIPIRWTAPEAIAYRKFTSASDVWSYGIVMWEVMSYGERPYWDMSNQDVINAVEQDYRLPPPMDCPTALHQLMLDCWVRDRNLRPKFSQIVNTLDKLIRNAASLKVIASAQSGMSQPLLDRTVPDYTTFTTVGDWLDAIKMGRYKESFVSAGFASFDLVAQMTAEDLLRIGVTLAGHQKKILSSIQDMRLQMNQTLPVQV
Consider the following compounds; for each one, report its remaining activity at 100 µM.
// note: answer is a bare numeric in %

Q: Give remaining activity at 100 µM for CC(=O)Nc1nc2ccc(O)cc2s1 [Compound 01-71]
Result: 66

Q: Give remaining activity at 100 µM for CC(=O)Nc1nc2cc(C(F)(F)F)ccc2s1 [Compound 03-73]
Result: 114

Q: Give remaining activity at 100 µM for CC(=O)Nc1nc2ccc(C(F)(F)F)cc2s1 [Compound 01-90]
Result: 89

Q: Give remaining activity at 100 µM for CC(=O)Nc1nc2cc(F)ccc2s1 [Compound 03-77]
Result: 113

Q: Give remaining activity at 100 µM for COc1ccc2sc(NC(C)=O)nc2c1 [Compound 03-21]
Result: 106

Q: Give remaining activity at 100 µM for CC(=O)Nc1nc2ccc(C#N)cc2s1 [Compound 01-94]
Result: 72

----------
Consider the following molecules; for each one, report its remaining activity at 100 µM.
molecular target: Lck (Homo sapiens, UniProt P06239); test: Kinase profiling Lck; format: biochemical; conditions: 100 micromolar inhibitor concentration; 100 is no change; read-out: residual kinase activity, Lck
Sequence (P06239 whole entry, species assumed): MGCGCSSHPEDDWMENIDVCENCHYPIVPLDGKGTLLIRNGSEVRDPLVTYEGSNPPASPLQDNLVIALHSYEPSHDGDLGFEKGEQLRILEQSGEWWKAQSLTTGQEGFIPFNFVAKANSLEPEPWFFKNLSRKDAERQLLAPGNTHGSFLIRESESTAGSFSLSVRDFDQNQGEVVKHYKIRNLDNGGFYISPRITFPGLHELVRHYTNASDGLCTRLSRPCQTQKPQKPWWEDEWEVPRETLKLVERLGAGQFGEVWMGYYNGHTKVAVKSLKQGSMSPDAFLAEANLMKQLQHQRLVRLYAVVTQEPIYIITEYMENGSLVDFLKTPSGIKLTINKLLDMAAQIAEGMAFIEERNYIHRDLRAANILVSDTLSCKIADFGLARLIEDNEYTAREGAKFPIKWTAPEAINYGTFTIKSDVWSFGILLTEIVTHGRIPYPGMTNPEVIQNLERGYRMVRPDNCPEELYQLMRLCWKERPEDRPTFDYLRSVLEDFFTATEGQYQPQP
// note: answer is a bare numeric in %

Q: Give remaining activity at 100 µM for `CC(=O)Nc1nc2ccc([N+](=O)[O-])cc2s1`
Result: 79

Q: Give remaining activity at 100 µM for `CC(=O)Nc1nc2ccc(C(F)(F)F)cc2s1`
Result: 53

Q: Give remaining activity at 100 µM for `CC(=O)Nc1nc2ccc(C#N)cc2s1`
Result: 168

Q: Give remaining activity at 100 µM for `CC(=O)Nc1nc2cc(F)ccc2s1`
Result: 96

Q: Give remaining activity at 100 µM for `COc1ccc2sc(NC(C)=O)nc2c1`
Result: 109

Q: Give remaining activity at 100 µM for `CC(=O)Nc1nc2ccc(O)cc2s1`
Result: 192

Q: Give remaining activity at 100 µM for `CC(=O)Nc1nc2cc(C(F)(F)F)ccc2s1`
Result: 101

----------
Molecular target: NEK2a (Homo sapiens, UniProt P51955)
Sequence (P51955 1-445): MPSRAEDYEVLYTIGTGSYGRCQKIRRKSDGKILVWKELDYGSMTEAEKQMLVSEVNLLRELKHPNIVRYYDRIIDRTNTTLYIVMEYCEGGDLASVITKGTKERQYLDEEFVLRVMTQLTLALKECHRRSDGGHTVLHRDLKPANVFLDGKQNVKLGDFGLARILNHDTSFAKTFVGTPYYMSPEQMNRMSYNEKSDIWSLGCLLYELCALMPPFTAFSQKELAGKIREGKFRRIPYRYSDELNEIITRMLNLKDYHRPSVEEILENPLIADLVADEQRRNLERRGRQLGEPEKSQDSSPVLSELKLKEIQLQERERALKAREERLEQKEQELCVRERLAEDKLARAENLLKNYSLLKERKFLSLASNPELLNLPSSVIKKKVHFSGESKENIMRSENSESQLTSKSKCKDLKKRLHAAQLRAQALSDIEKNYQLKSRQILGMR
Experiment: Kinase profiling NEK2a
Assay type: biochemical
Conditions: 100 micromolar inhibitor concentration; 100 is no change
Measurement name: residual kinase activity, NEK2a
Number only, no unit.

Q: Give residual kinase activity, NEK2a for `O=C(Nc1nc2cc(O)ccc2s1)c1cccnc1`
Result: 99

Q: Give residual kinase activity, NEK2a for `O=C(Nc1nc2cc(O)ccc2s1)c1ccncc1`
Result: 93

Q: Give residual kinase activity, NEK2a for `O=C(Nc1nc2ccc(O)cc2s1)c1ccccn1`
Result: 92

Q: Give residual kinase activity, NEK2a for `CC(=O)Nc1nc2cc(C)ccc2s1`
Result: 95

Q: Give residual kinase activity, NEK2a for `CC(=O)Nc1nc2ccccc2s1`
Result: 90

Q: Give residual kinase activity, NEK2a for `O=C(Nc1nc2ccc(O)cc2s1)c1ccncc1`
Result: 79

Q: Give residual kinase activity, NEK2a for `O=C(Nc1nc2ccc(O)cc2s1)c1ccccc1`
Result: 64

Q: Give residual kinase activity, NEK2a for `O=C(Nc1nc2cc(O)ccc2s1)c1ccccn1`
Result: 89

Q: Give residual kinase activity, NEK2a for `O=C(Nc1nc2ccc(O)cc2s1)c1cccnc1`
Result: 74
